Test system: Danio rerio larvae (5 dpf)
experiment-summary: difference in activity during first hour vs DMSO (percentage points); higher = more activity than DMSO
condition-set: 10 µM; exposure time 6 h
Where a name gives a salt, the structure may show the parent alone.
endpoint-label: difference in activity during first hour
Provide a numeric answer; units are not to be included.

- compound: "CC[C@H]1OC(=O)[C@H](C)[C@@H](O[C@H]2C[C@@](C)(OC)[C@@H](O)[C@H](C)O2)[C@H](C)[C@@H](O[C@@H]2O[C@H](C)C[C@H](N(C)C)[C@H]2O)[C@](C)(OC)C[C@@H](C)C(=O)[C@H](C)[C@@H](O)[C@]1(C)O [Clarithromycin]"
  value-observed: 11.7
- compound: "CC1(C)S[C@@H]2[C@H](NC(=O)[C@H](N)c3ccccc3)C(=O)N2[C@H]1C(=O)O [Ampicillin (sodium salt)]"
  value-observed: -2.5
- compound: "CC(C(=O)O)c1ccc(-c2ccccc2)c(F)c1 (racemic) [(±)-Flurbiprofen]"
  value-observed: 15

We next turn to a different compound, shown below.
[Q] Provide only the value of recorded difference in activity during first hour for N[C@@H]1CCCCN(c2c(F)cc3c(=O)c(C(=O)O)cn(C4CC4)c3c2Cl)C1 [Besifloxacin (hydrochloride)]
[A] 5.97
